Where do these numbers come from? They come from patent US11434242B2.

biological target: Dopamine beta hydroxylase (Homo sapiens, UniProt P09172); construct: 125 μl of plasma; tissue Instituto Português do Sangue Transplantação; host or cells: human plasma from healthy donors; assay: Dopamine beta hydroxylase activity in human plasma; format: biochemical; conditions: inhibitor 0.1 μM
Sequence (P09172 40-617 limits assumed): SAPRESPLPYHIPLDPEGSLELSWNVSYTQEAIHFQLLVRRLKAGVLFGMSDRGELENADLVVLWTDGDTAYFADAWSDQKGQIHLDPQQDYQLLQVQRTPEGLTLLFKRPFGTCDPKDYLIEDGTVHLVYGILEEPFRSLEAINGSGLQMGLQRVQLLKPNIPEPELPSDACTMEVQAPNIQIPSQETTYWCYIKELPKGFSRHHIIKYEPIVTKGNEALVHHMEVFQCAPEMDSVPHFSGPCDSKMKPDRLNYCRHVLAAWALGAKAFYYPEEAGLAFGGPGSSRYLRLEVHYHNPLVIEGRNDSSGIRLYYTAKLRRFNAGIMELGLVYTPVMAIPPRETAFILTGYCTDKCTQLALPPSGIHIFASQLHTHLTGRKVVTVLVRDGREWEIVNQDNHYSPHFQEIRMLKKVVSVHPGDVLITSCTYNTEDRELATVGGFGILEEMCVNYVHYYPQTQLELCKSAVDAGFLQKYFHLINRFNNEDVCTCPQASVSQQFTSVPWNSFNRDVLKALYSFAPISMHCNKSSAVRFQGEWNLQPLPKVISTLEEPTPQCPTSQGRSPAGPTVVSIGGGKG
endpointLabel: Plasma (0.1 μM), activity in % of control

Solved entries (count: 3):
stdin: Report Plasma (0.1 μM), activity in % of control for O=C(Cc1[nH]c(=S)n2c1[C@@H]1C[C@]1(c1cc(Br)ccc1F)C2)N1CCOCC1 [Example 157]
stdout: 24.2 % of control

stdin: Report Plasma (0.1 μM), activity in % of control for CS(=O)(=O)NC(=O)Cc1[nH]c(=S)n2c1C[C@H](c1c(F)c(F)cc(F)c1F)C2 [Example 23]
stdout: 56.6 % of control

stdin: Report Plasma (0.1 μM), activity in % of control for Cn1c(CC(=O)N[C@H]2CCOC2)c2n(c1=S)C[C@H](c1c(F)ccc(Br)c1F)C2 [Example 459]
stdout: 13.5 % of control

***
stdin: Report Plasma (0.1 μM), activity in % of control for Cn1c(CC(=O)NCc2ccc3c(c2)OCO3)c2n(c1=S)C[C@H](c1c(F)ccc(Cl)c1F)C2 [Example 291]
stdout: 1.7 % of control

stdin: Report Plasma (0.1 μM), activity in % of control for Cn1c(C2(C(=O)N[C@@H]3CCOC3)CC2)c2n(c1=S)C[C@H](c1c(F)ccc(Br)c1F)C2 [Example 234]
stdout: 12.2 % of control

stdin: Report Plasma (0.1 μM), activity in % of control for O=C(Cc1[nH]c(=S)n2c1C[C@@H](c1c(F)ccc(Br)c1F)C2)NC1CC1 [Example 94]
stdout: 47.5 % of control

###

target: Dopamine beta hydroxylase (Homo sapiens, UniProt P09172); construct: 125 μl of plasma; tissue Instituto Português do Sangue Transplantação; host or cells: human plasma from healthy donors; assay: Dopamine beta hydroxylase activity in human plasma; type: biochemical; conditions: inhibitor 0.01 μM
endpointLabel: Plasma (0.01 μM), activity in % of control

stdin: State measured Plasma (0.01 μM), activity in % of control of the compound O=C(Cc1[nH]c(=S)n2c1[C@@H]1C[C@]1(c1c(F)ccc(Cl)c1F)C2)N1CCC(F)(F)CC1 [Example 149] with Dopamine beta hydroxylase (Homo sapiens, UniProt P09172).
stdout: 52.5 % of control

Field: next compound
stdin: State measured Plasma (0.01 μM), activity in % of control of the compound O=C(NCc1[nH]c(=S)n2c1C[C@@H](c1c(F)ccc(Cl)c1F)C2)c1cccnc1 [Example 223] with Dopamine beta hydroxylase (Homo sapiens, UniProt P09172).
stdout: 42.7 % of control

###

target: Dopamine beta hydroxylase (Homo sapiens); construct: 125 μl of plasma; tissue Instituto Português do Sangue Transplantação; host or cells: human plasma from healthy donors; assay: Dopamine beta hydroxylase activity in human plasma; assay type: biochemical; conditions: inhibitor 0.1 μM
Listed molecules paired with reported Plasma (0.1 μM), activity in % of control

Solved entries (count: 3):
stdin: State measured Plasma (0.1 μM), activity in % of control of the molecule Cn1c(CC(=O)Nc2nccs2)c2n(c1=S)C[C@@H](c1c(F)c(F)cc(F)c1F)C2 with Dopamine beta hydroxylase (Homo sapiens).
stdout: 27.0 % of control

stdin: State measured Plasma (0.1 μM), activity in % of control of the molecule Cn1c(CC(=O)N[C@@H]2CCCOC2)c2n(c1=S)C[C@H](c1c(F)ccc(Cl)c1F)C2 with Dopamine beta hydroxylase (Homo sapiens).
stdout: 7.0 % of control

stdin: State measured Plasma (0.1 μM), activity in % of control of the molecule CN1C[C@@H](NC(=O)Cc2c3n(c(=S)n2C)C[C@H](c2c(F)ccc(Br)c2F)C3)CC1=O with Dopamine beta hydroxylase (Homo sapiens).
stdout: 2.3 % of control

***
stdin: State measured Plasma (0.1 μM), activity in % of control of the molecule Cl.Cn1c(CCNC2CCCC2)c2n(c1=S)C[C@@]1(c3cc(Cl)ccc3F)C[C@@H]21 with Dopamine beta hydroxylase (Homo sapiens).
stdout: 43.4 % of control

stdin: State measured Plasma (0.1 μM), activity in % of control of the molecule Cn1c(CC(=O)O)c2n(c1=S)C[C@@]1(c3cc(Cl)ccc3F)C[C@@H]21 with Dopamine beta hydroxylase (Homo sapiens).
stdout: 33.3 % of control

stdin: State measured Plasma (0.1 μM), activity in % of control of the molecule Cn1c(CC(=O)NC2CCCC2)c2n(c1=S)C[C@@H](c1cc(Cl)ccc1F)C2 with Dopamine beta hydroxylase (Homo sapiens).
stdout: 93 % of control

stdin: State measured Plasma (0.1 μM), activity in % of control of the molecule Cn1c(CC(=O)NCC#N)c2n(c1=S)C[C@H](c1c(F)ccc(Br)c1F)C2 with Dopamine beta hydroxylase (Homo sapiens).
stdout: 24.5 % of control

stdin: State measured Plasma (0.1 μM), activity in % of control of the molecule Cn1c(CC(=O)N[C@H]2CCOC2)c2n(c1=S)C[C@H](c1c(F)ccc(F)c1F)C2 with Dopamine beta hydroxylase (Homo sapiens).
stdout: 60.5 % of control

stdin: State measured Plasma (0.1 μM), activity in % of control of the molecule Cn1c(CC(=O)O)c2n(c1=S)C[C@@]1(c3cc(Br)ccc3F)C[C@@H]21 with Dopamine beta hydroxylase (Homo sapiens).
stdout: 24.4 % of control

stdin: State measured Plasma (0.1 μM), activity in % of control of the molecule [2H]C([2H])([2H])n1c(CC(=O)N[C@@H]2CCCOC2)c2n(c1=S)C[C@@]1(c3cc(Br)ccc3F)C[C@@H]21 with Dopamine beta hydroxylase (Homo sapiens).
stdout: 4.5 % of control

stdin: State measured Plasma (0.1 μM), activity in % of control of the molecule O=C(Cc1[nH]c(=S)n2c1C[C@H](c1c(F)cccc1F)C2)NC1CCCC1 with Dopamine beta hydroxylase (Homo sapiens).
stdout: 65.8 % of control

stdin: State measured Plasma (0.1 μM), activity in % of control of the molecule Cn1c(CC(=O)N2CCNCC2)c2n(c1=S)C[C@@]1(c3cc(Cl)ccc3F)C[C@@H]21 with Dopamine beta hydroxylase (Homo sapiens).
stdout: 31.1 % of control

stdin: State measured Plasma (0.1 μM), activity in % of control of the molecule O=C(Cc1[nH]c(=S)n2c1C[C@@H](c1c(F)ccc(Br)c1F)C2)NCc1cccnc1 with Dopamine beta hydroxylase (Homo sapiens).
stdout: 3.3 % of control

stdin: State measured Plasma (0.1 μM), activity in % of control of the molecule Cn1c(CCNC(C)(C)C)c2n(c1=S)C[C@@H](c1c(F)ccc(F)c1F)C2 with Dopamine beta hydroxylase (Homo sapiens).
stdout: 64.8 % of control
